This collection of values is drawn from paper PMC6009886.

Known Grb2 % Inhibition 3 μM of a selection of compounds
- System: Grb2 (Growth factor receptor-bound protein 2)
- Construct: First, 75 nM of each SH2-containing protein was incubated with the test compound for 15 min
- assayRemarks: AlphaScreen-based assay, selectivity versus Grb2
- Assay type: binding
- conditionDescription: a = mean of two experiments
Marks after values point to notes of the source that are not given here.

Some entries whose results are on file:
>>> measurement("CCCC(CCC)C(=O)NCCSS(C)(=O)=O")
"−23.3^a %"
>>> measurement("CS(=O)(=O)SCCOC(=O)Cc1ccccc1Nc1c(Cl)cccc1Cl")
"77.8^a %"
>>> measurement("CS(=O)(=O)SCCN [Compound 10, S-(2-aminoethyl) methanesulfonothioate, reference compound]")
"12.3^a %"

Give the observed Grb2 % Inhibition 3 μM of "CC(=O)Oc1ccccc1C(=O)OCCSS(C)(=O)=O" for Grb2 (Growth factor receptor-bound protein 2).
15.9^a %

Give the observed Grb2 % Inhibition 3 μM of "CCCC(CCC)C(=O)OCCSS(C)(=O)=O" for Grb2 (Growth factor receptor-bound protein 2).
76.0^a %

Give the observed Grb2 % Inhibition 3 μM of CC1=C(CC(=O)OCCSS(C)(=O)=O)c2cc(F)ccc2/C1=C\c1ccc([S+](C)[O-])cc1 (stereo not drawn) for Grb2 (Growth factor receptor-bound protein 2).
74.6^a %
